Biological target: T1, CD81 (UniProt P60033)
T1 sequence (looked up): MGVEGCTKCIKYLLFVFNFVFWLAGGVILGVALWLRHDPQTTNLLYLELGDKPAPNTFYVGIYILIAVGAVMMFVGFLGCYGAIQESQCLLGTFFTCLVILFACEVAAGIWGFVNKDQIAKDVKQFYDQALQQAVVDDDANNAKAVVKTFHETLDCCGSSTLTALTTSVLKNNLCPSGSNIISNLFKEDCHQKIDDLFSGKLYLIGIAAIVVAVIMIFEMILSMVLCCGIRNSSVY
Experiment: cell ELISA
metricName: ELISA absorbance

Sample answers from the record:
binder	metricName	valueObserved
CD81K13 HC 04-hVH_1_69 / LC 07-hVK_1_27 (antibody, V domains shown) VH: EVQLVESGGGLVQPGRSLRLSCTASGFNFKDSYLHWVRQAPGQGLEWMGRIDTGNGNVKFDPKFQGRVTITADESTSTAYMELSSLRSEDTAVYYCVPYGYGFHSWGQGTLVTVSS VL: DIQMTQSPSSLSASVGDRVTITCRASENIYRTLAWYQQKPGKVPKLLIYAATTLASGVPSRFSGSGSGTDFTLTISSLQPEDVGTYYCQKFWGTPWTFGQGTKVEIK	ELISA absorbance	0.085
CD81K04 HC JA_GG-14-hVH_1_69 / LC JA_GG-07-hVK_7_3 (antibody, V domains shown) VH: QVQLVQSGAEVKKPGSSVKVSCKASGYTFSSSWMNWVRQAPGQGLEWMGRIYSGDGDAIYNGKFKGKATITADESTSTAYMELSSLRSEDTAVYYCAREGKTGDLLLRSWGQGTLVTVSS VL: DIVLTQSPASLAVSPGQRATITCRASKSVSTSIYSYMHWYQQKPGQPPKLLIKYASNKDTGVPARFSGSGSGTDFTLTINPVEANDAANYYCLHSREFPYTFGQGTKLEIK	ELISA absorbance	0.107
CD81K04 HC GG-05-hVH_1_18 / LC JA_GG-10-hVK_4_1 (antibody, V domains shown) VH: QVQLVQSGAEVKKPGASVKVSCKASGYTFSSSWMNWVRQAPGQGLEWMGRIYSGDGDAIYAQKLQGRVTMTTDTSTSTAYMELRSLRSDDTAVYYCAREGKTGDLLLRSWGQGTLVTVSS VL: DIVMTQSPDSLAVSLGERATINCRASKSVSTSIYSYMHWYQQKPGQPPKLLIKYASYLESGVPDRFSGSGSGTDFTLTISSLQAEDVAVYYCEHSREFPFTFGQGTKLEIK	ELISA absorbance	0.841

In: Give its ELISA absorbance value. Item: CD81K13 HC 04-hVH_1_69 / LC 05-hVK_1_39 (antibody, V domains shown) VH: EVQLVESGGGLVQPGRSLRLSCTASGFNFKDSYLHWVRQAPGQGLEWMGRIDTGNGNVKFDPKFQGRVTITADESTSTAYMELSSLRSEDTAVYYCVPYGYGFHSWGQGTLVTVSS VL: DIQMTQSPSSLSASVGDRVTITCRASENIYRTLAWYQQKPGKAPKLLIYAATTLASGVPSRFSGSGSGTDFTLTISSLQPEDFATYYCQHFWGTPWTFGQGTKVEIK
Out: 0.776
